- Assayed System: Bromodomain-containing protein 2 (Homo sapiens)
- Assay Remarks: Binding affinity to BRD2-BD1 assessed as change in melting temperature at 10 uM by protein stability shift assay
Active and inactive are the calls of the source. The rule behind the calls is not given here.
Your response should consist of one outcome taken from true (1) for active, false (0) for inactive

smiles_representation=Cc1nnc2n1-c1ccc(Cl)cc1C(c1ccccc1)=NC2 label_value="true (1)"
smiles_representation=Clc1ccc2c(c1)C(c1ccccc1)=NCc1nncn1-2 label_value="false (0)"
smiles_representation=Cc1ncc2n1-c1ccc(Cl)cc1C(c1ccccc1F)=NC2 label_value="true (1)"
smiles_representation=Cc1nnc2n1-c1ccc(Cl)cc1C(c1ccccc1)=NN2C label_value="true (1)"

# input for lookup
What classification did CCOC(=O)c1ncn2c1[C@@H]1CCCN1C(=O)c1cc(OC)ccc1-2 end up with in this test?
true (1)

From: ChEMBL document CHEMBL1955750
